tested on: Plasmodium berghei; experiment: Screen against P. berghei liver stage (PbLuc), transformed with Luciferase, at 10uM; type: functional, HepG2; settings: tested at 10 uM
About 8,600 (12%) of roughly 69,000 compounds showed an effect of 50% or more. The sample as a whole holds a higher share of strong results than the screen did.
Use INHIBITION to assign classes; range list: A = under 20%, B = from 20% up to 40%, C = 40% and over

>>> assigned_category("FC(F)(F)c1cccc(OC2CCN(Cc3ncc[nH]3)CC2)c1")
"C"
>>> assigned_category("CN(C)[C@@H]1CCN(C(=O)c2ccsc2)[C@H]1Cc1cccnc1")
"B"
>>> assigned_category("OC1(CN2CCC(Oc3cccnc3)CC2)CNCCOC1 (centres undefined)")
"A"
>>> assigned_category("O=C(O)C1(Cc2ccccc2Cl)CCN(c2ncccc2F)CC1")
"C"
>>> assigned_category("O=C(c1ccc(=O)[nH]c1)N1CCC(Oc2cccc(C(F)(F)F)c2)CC1")
"C"
>>> assigned_category("Cc1cc(NC2CCc3ncnn3C2)n2nc(C(F)(F)F)nc2n1 (centres undefined)")
"B"
>>> assigned_category("O=C1CCCN1Cc1ncn2c1CN(C(=O)Cc1cccs1)CCC2")
"B"
>>> assigned_category("CN1CC(=O)N(c2cnn(C)c2)CC12CCN(Cc1ccccc1)C2 (centres undefined)")
"B"
>>> assigned_category("O=C(O)C1(Cc2ccc(Cl)cc2)CCN(c2ncccc2F)CC1")
"C"
>>> assigned_category("CC(C)c1noc(CN(Cc2cccnc2)C2CN3CCC2CC3)n1 (centres undefined)")
"C"
>>> assigned_category("O=C(c1cccnc1)N1CCC(Oc2cccc(C(F)(F)F)c2)CC1")
"B"
>>> assigned_category("Cc1cccc(CNC(=O)NCC2CCN(Cc3ncc[nH]3)C2)c1 (centres undefined)")
"A"
>>> assigned_category("c1ccc(-c2nc(CCNC3CCOC4(CCOCC4)C3)no2)cc1 (centres undefined)")
"A"
>>> assigned_category("COC1(CNC(=O)c2ccsc2)CCSC1 (centres undefined)")
"A"
>>> assigned_category("Cc1cccc(OC2CCN(Cc3ncc[nH]3)CC2)c1")
"C"
>>> assigned_category("O=c1ccn([C@H]2CCN(Cc3ncc[nH]3)CC[C@@H]2O)c(=O)[nH]1")
"B"
>>> assigned_category("N#Cc1c(N)nc2c(c1-c1cnc(N3CCCC3)nc1)COCC2")
"A"
>>> assigned_category("CCc1cc(CN(Cc2cccnc2)C2CN3CCC2CC3)on1 (centres undefined)")
"B"
>>> assigned_category("OC1(CN2CCC(Oc3cccc(C(F)(F)F)c3)CC2)CNCCOC1 (centres undefined)")
"B"
>>> assigned_category("CCC(c1ccc(F)cc1F)S(=O)(=O)CCO (centres undefined)")
"B"
>>> assigned_category("OC1(CN2CCC(Oc3cccc(C(F)(F)F)c3)CC2)CCNC1 (centres undefined)")
"C"
>>> assigned_category("CCC(c1ccc(F)cc1)S(=O)(=O)CCO (centres undefined)")
"A"
>>> assigned_category("CC(C)(C)c1nc(CN(Cc2ccccc2F)C2CCCCC2)no1")
"B"

###

tested on: Plasmodium berghei; assay: Screen against P. berghei liver stage (PbLuc), transformed with Luciferase, at 10uM; type: functional, HepG2; details: tested at 10 uM
Out of some 69,000 compounds screened, about 8,600 (12%) showed an effect of 50% or more. What follows is part of a selection rich in strong results, with near analogues and random picks from the rest.
Could you mark each record satisfied if its INHIBITION falls strictly under 40%, and not satisfied if it equals or exceeds it?

>>> assigned_category("CCN(Cc1ccncc1)C(=O)c1cc(C)c(C)c(S(N)(=O)=O)c1")
"not satisfied"
>>> assigned_category("Cn1nnc2c1C(COCc1ccccn1)CN(C(=O)c1ccsc1)C2 (stereo not given)")
"satisfied"
>>> assigned_category("CC(C)c1nnc(N2C[C@H]3CC[C@@H](C2)N(CC2CCC2)C3)s1")
"not satisfied"
>>> assigned_category("Cc1nn(C)c(C)c1S(=O)(=O)N1C[C@@H]2C[C@@H](C)O[C@@H]2C1")
"satisfied"
>>> assigned_category("CCN(Cc1ccoc1)C(=O)c1ccc(C)c(S(N)(=O)=O)c1")
"satisfied"
>>> assigned_category("COc1ccc(CN2C[C@H]3CC[C@@H](C2)N(Cc2snnc2C)C3)cc1")
"not satisfied"
>>> assigned_category("CC(C)c1nnc(N2C[C@H]3CC[C@@H](C2)N(Cc2ccccc2)C3)s1")
"not satisfied"
>>> assigned_category("NC1CCN(C2CCN(c3ccc(-c4ccco4)cc3)CC2)CC1")
"not satisfied"
>>> assigned_category("Cc1nnsc1CN1C[C@H]2CC[C@@H](C1)N(Cc1ccccc1)C2")
"not satisfied"
>>> assigned_category("Cn1cc(CN2CCCC3(COCCN(c4cccnc4)C3)C2)cn1 (stereo not given)")
"satisfied"
>>> assigned_category("CCS(=O)(=O)c1ccc(N2CCC(N)CC2)cc1")
"satisfied"
>>> assigned_category("O=C(NCC1CC1)[C@@H]1CCO[C@@H]2CCN(CCc3ccccc3)C[C@H]21")
"not satisfied"
>>> assigned_category("Cc1[nH]ncc1C(=O)N(CC(C)C)CC(O)c1ccc(F)cc1 (stereo not given)")
"satisfied"
>>> assigned_category("O=C(O)c1ccccc1C1CCN(C2CCN(c3ccccc3)CC2)C1 (stereo not given)")
"satisfied"
>>> assigned_category("CC(Oc1cccc(Cl)c1)C(=O)Nc1cnn(CCN(C)C)c1 (stereo not given)")
"not satisfied"
>>> assigned_category("COc1ccc(N2CCC(N3CCOC(C(F)(F)F)C3)CC2)cc1 (stereo not given)")
"satisfied"
>>> assigned_category("Cc1ccc(-n2c(SCC(=O)O)nnc2-c2cccc(C)c2)cc1")
"satisfied"
>>> assigned_category("Cc1nnsc1CN1C[C@@H]2CC[C@H]1CN(Cc1ccccc1)C2")
"not satisfied"
>>> assigned_category("N#Cc1cnn(-c2ccc(C(=O)N(C3CCCCC3)C3CC3)cc2)c1N")
"satisfied"
>>> assigned_category("CCn1c(CN2CCN(CCOC)CC2)nc2c(F)cccc21")
"not satisfied"
>>> assigned_category("CCCN1C[C@@H]2CC[C@H]1CN(c1nnc(C(C)C)s1)C2")
"satisfied"
>>> assigned_category("CN(CC1CCCCC1)C(=O)c1ccc(-n2ncc(C#N)c2N)cc1")
"not satisfied"
>>> assigned_category("CC(C)NC(=O)[C@@H]1CN(Cc2ccc3c(c2)OCO3)C[C@H]2OCC[C@H]21")
"satisfied"
>>> assigned_category("Cc1ccc(CN(CC(=O)N2CCOC(C)C2)C2CC2)cc1 (stereo not given)")
"satisfied"
>>> assigned_category("O=C(Nc1cnccn1)[C@@H]1C[C@H]2OCC[C@H]2N(Cc2ccsc2)C1")
"satisfied"
>>> assigned_category("N#Cc1cnn(-c2ccc(C(=O)Nc3ccccn3)cc2)c1N")
"satisfied"
>>> assigned_category("CC(C)c1nc(C(=O)N2C[C@@H]3CC[C@H]2CN(C2CCOCC2)C3)cs1")
"not satisfied"
>>> assigned_category("Cc1nnsc1CN1C[C@@H]2CC[C@H]1CN(Cc1ccccn1)C2")
"satisfied"
>>> assigned_category("CC(C)N1CCC2(CCCN(C(=O)c3cncn3C)C2)CC1")
"satisfied"
>>> assigned_category("O=C(NCCc1cc2nc(-c3ccncc3)ccn2n1)C1CCOCC1")
"satisfied"
>>> assigned_category("Cc1ccnc(NC(=O)c2ccc(-n3ncc(C#N)c3N)cc2)c1")
"not satisfied"
>>> assigned_category("COc1cccc(-c2cc(C(=O)Nc3nc[nH]n3)[nH]n2)c1")
"satisfied"
>>> assigned_category("Cc1ncsc1CN1C[C@@H]2CC[C@H]1CN(Cc1ccccc1)C2")
"satisfied"
>>> assigned_category("O=C(O)c1ccccc1-c1ccc(CN2CCC(CO)C2)cc1 (stereo not given)")
"satisfied"
>>> assigned_category("CC(=O)c1cccc(OC(C)C(=O)Nc2cnn(CCN(C)C)c2)c1 (stereo not given)")
"satisfied"
>>> assigned_category("CC(=O)Nc1ccc(CN2C[C@@H]3CC[C@H]2CN(c2ncccn2)C3)cc1")
"satisfied"
>>> assigned_category("CC(=O)N1CCN(C(=O)c2csc(-c3ccc(C)cc3C)n2)CC1")
"satisfied"
>>> assigned_category("NCC1CCN(C2CCN(c3ccc(-c4ccco4)cc3)CC2)C1 (stereo not given)")
"not satisfied"
>>> assigned_category("O=C(c1cccs1)N1CCCC2(COCCN(c3cccnc3)C2)C1 (stereo not given)")
"not satisfied"
>>> assigned_category("O=C(c1cccnc1)N1CCCC2(COCCN(c3ccccc3)C2)C1 (stereo not given)")
"satisfied"
>>> assigned_category("Cc1c(O)cccc1C(=O)N1CCCC2(C1)C(=O)N(C)c1ccccc12 (stereo not given)")
"satisfied"
>>> assigned_category("COCC1COCCC12CCN(CCc1ccccc1)CC2 (stereo not given)")
"satisfied"
>>> assigned_category("Cc1nnsc1CN1C[C@@H]2CC[C@H]1CN(Cc1ccc(F)cc1)C2")
"satisfied"
